- experimental-target: T1, cynomolgus monkey (Macaca fascicularis) TfR1 (cynomolgus monkey (Macaca fascicularis), UniProt Q5RDH6 89-760 (Pongo abelii entry), limits assumed)
- T1 construct: also called cTfR1; cyTfR1
- T1 chain: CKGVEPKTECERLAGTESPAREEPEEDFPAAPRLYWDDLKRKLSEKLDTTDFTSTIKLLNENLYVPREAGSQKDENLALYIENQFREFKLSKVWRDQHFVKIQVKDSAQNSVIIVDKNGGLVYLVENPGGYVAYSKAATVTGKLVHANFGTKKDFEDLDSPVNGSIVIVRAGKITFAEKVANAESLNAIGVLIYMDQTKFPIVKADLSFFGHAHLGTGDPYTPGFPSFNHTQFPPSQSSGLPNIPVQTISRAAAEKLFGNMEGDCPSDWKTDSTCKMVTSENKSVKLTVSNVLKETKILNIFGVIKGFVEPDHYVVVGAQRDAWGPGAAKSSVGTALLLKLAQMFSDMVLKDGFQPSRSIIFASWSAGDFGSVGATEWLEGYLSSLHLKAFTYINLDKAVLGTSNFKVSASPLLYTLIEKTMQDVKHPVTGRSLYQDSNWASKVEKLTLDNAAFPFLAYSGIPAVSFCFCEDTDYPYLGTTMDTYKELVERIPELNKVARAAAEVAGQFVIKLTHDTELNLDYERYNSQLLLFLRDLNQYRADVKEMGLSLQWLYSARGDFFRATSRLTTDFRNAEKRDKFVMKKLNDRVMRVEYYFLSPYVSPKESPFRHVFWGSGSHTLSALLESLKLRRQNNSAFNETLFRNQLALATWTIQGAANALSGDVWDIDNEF
- assay-procedure: ELISA, d9 (after 9 days at 40 C)
pEC50: −log10 of the molar value.
Would you mind labelling by pEC50? At or over 8 is Criterion met, under is Criterion not met.

binder	qualitative-label
humanized anti-TfR Fab 5H12 VH5 (C33Y)/Vk4 (Fab, V domains shown) VH: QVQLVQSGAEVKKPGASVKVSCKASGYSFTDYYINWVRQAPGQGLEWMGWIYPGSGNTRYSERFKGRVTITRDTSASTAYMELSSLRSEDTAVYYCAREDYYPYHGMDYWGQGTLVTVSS VL: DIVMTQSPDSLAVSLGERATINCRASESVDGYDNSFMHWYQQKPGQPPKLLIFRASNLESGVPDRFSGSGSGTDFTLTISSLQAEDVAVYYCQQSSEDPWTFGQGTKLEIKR	Criterion met
humanized anti-TfR Fab 3A4 VH3 (N54T)/Vk4 (Fab, V domains shown) VH: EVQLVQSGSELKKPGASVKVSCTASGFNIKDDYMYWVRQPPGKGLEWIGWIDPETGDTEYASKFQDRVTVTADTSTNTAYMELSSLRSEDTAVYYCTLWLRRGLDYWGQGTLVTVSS VL: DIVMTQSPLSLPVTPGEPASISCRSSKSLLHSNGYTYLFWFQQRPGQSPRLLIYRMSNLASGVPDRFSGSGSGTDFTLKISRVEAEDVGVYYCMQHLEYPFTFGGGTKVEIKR	Criterion not met
humanized anti-TfR Fab 5H12 VH5 (C33Y)/Vk3 (Fab, V domains shown) VH: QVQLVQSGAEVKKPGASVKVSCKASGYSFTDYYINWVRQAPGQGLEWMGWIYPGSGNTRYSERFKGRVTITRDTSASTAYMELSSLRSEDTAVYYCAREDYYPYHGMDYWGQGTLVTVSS VL: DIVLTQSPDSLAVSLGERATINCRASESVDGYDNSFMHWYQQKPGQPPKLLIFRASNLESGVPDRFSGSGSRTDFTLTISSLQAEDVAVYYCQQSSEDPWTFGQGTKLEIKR	Criterion met
humanized anti-TfR Fab 3A4 VH3 (N54S)/Vk4 (Fab, V domains shown) VH: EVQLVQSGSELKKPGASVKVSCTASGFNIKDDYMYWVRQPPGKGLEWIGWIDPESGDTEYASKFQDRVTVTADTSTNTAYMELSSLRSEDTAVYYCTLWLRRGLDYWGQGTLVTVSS VL: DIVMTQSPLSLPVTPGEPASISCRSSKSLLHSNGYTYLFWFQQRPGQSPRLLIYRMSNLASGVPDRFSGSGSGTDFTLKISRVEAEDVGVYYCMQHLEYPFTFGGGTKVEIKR	Criterion not met
humanized anti-TfR Fab 5H12 VH5 (C33D)/Vk4 (Fab, V domains shown) VH: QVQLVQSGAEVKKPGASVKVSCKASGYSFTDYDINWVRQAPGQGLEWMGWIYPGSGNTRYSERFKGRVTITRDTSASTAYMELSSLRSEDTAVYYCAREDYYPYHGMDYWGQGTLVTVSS VL: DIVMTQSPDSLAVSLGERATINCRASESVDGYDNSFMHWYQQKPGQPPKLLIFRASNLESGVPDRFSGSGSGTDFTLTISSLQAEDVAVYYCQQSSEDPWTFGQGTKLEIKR	Criterion met
humanized anti-TfR Fab 3A4 VH3/Vk4 (Fab, V domains shown) VH: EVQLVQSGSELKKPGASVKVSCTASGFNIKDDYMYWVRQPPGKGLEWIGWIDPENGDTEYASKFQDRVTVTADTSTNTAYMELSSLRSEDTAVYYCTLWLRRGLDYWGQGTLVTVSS VL: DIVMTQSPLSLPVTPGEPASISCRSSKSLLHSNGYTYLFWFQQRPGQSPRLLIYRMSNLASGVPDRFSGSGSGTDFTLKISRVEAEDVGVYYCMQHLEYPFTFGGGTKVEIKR	Criterion not met
humanized anti-TfR Fab 3M12 VH4/Vk2 (Fab, V domains shown) VH: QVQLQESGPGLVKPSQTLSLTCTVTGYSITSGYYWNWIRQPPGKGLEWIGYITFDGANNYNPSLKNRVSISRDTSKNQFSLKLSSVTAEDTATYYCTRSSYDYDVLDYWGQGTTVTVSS VL: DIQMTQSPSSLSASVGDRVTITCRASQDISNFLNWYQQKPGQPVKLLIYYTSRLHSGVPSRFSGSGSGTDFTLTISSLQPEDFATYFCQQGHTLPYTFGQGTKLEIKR	Criterion met

Now, please, on to the next binder.
Decide: is the reported value of pEC50 for humanized anti-TfR Fab 3M12 VH3/Vk2 (Fab, V domains shown) VH: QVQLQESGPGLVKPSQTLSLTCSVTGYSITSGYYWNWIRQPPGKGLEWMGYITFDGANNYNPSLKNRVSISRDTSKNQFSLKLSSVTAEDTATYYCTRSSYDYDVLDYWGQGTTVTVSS VL: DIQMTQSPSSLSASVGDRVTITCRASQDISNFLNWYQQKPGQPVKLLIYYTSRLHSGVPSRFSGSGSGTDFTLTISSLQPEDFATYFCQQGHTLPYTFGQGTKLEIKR equal to or greater than 8? Criterion not met

Reference source: patent US20230285582A1
